# Lookup of reported IC50 keyed by entry
- assayed_system: BACE1 (Homo sapiens, UniProt P56817)
- Sequence (P56817 46-501, species assumed): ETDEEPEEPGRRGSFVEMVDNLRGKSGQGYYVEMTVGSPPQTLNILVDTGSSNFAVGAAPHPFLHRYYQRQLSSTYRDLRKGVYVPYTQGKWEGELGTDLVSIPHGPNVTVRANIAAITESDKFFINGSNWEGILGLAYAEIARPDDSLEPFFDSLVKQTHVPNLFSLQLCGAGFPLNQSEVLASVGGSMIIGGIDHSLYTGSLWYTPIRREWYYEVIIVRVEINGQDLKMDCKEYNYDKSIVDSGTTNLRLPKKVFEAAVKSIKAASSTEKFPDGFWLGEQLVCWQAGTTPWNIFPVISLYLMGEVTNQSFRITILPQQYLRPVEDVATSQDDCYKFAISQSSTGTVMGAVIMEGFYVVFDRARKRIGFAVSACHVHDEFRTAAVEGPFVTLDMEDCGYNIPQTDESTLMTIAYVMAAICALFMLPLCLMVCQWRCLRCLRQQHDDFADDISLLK
- method_notes: In Vitro Enzymatic BACE FRET (Fluorescence Resonance Energy Transfer) Assay
- Format: biochemical
- test_context: in vitro BACE FRET enzyme assay, IC50 class symbols; read-out: BACE1 FRET assay

Solved cases below.
NC1=N[C@@]2(CO1)c1cc(-c3cncc(Cl)c3)ccc1Oc1cnc(-c3cccnc3)cc12 | < 100 nM
Cn1cc(-c2cccc(-c3ccc4c(c3)[C@@]3(COC(N)=N3)c3cc(-c5cnn(C)c5)ncc3O4)c2)cn1 | < 100 nM
NC1=N[C@@]2(CO1)c1cc(-c3cccnc3F)ccc1Oc1ccc(-c3ccnc(F)c3)nc12 | < 100 nM
NC1=N[C@@]2(CO1)c1cc(-c3cccnc3F)ccc1Oc1ccc(-c3ccncc3)nc12 | < 100 nM

Need IC50 of `NC1=N[C@@]2(CO1)c1cc(-c3cccnc3F)ccc1Oc1ccc([C@H]3CCCCO3)cc12` , thanks.
< 100 nM

Need IC50 of `NC1=N[C@@]2(CO1)c1cc(-c3cncc(Cl)c3)ccc1Oc1cnc(C3=CCOCC3)cc12` , thanks.
< 100 nM

Need IC50 of `NC1=N[C@@]2(CO1)c1cc(-c3cccc(F)c3)ccc1Oc1cnc(-c3cccc(F)c3)cc12` , thanks.
< 100 nM

----------
- assayed_system: BACE1 (Homo sapiens, UniProt P56817)
- method_notes: In Vitro Enzymatic BACE FRET (Fluorescence Resonance Energy Transfer) Assay
- Assay type: biochemical
- test_context: read-out: BACE1 FRET assay
# Lookup of reported IC50 keyed by entry

Solved cases below.
CC(C)(O)C#Cc1cnc2c(c1)[C@@]1(COC(N)=N1)c1cc(C#CC3CC3)ccc1O2 [compound 705] | > 5000 nM
CC1(COc2ccc3c(c2)[C@@]2(COC(N)=N2)c2cc(-c4cccc(F)c4)cnc2O3)COC1 [compound 774] | < 100 nM
NC1=N[C@]2(CO1)c1cc(-c3cccnc3)ccc1Oc1cnc(-c3cccnc3)cc12 [compound 954] | < 100 nM

Would you kindly look at the next entry?
Could you share what IC50 was measured for NC1=N[C@@]2(CO1)c1cc(-c3ccccc3F)ccc1Oc1ncc(C3=CCOCC3)cc12 [compound 488] , tested on BACE1 (Homo sapiens, UniProt P56817)?
< 100 nM

----------
# Lookup of reported IC50 keyed by entry
- assayed_system: BACE1 (Homo sapiens)
- method_notes: In Vitro Enzymatic BACE FRET (Fluorescence Resonance Energy Transfer) Assay
- Assay type: biochemical
- test_context: Table IV, class symbols; read-out: BACE1 FRET assay

Need IC50 of NC1=N[C@@]2(CO1)c1cc(-c3cccnc3)ccc1Oc1ncccc12 [compound 594] , thanks.
> 5000 nM

----------
# Lookup of reported pIC50 keyed by entry
- assayed_system: BACE1 (Homo sapiens)
- method_notes: In Vitro BACE Cell-based Assay (HEK cell assay): Aβ40 in conditioned medium of cells stably expressing Amyloid Precursor Protein, sandwich ELISA
- test_context: Table II; Aβ40, 24 h incubation; read-out: HEK cell assay
pIC50: −log10 of the molar value.

Need pIC50 of `CC(C)(C)COc1ccc2c(c1)[C@]1(COC(N)=N1)c1cc(C#CC3CC3)ccc1O2` , thanks.
6.00 to 7.00

----------
- assayed_system: BACE1 (Homo sapiens, UniProt P56817)
- method_notes: In Vitro BACE Cell-based Assay (HEK cell assay): Aβ40 in conditioned medium of cells stably expressing Amyloid Precursor Protein, sandwich ELISA
- test_context: read-out: HEK cell assay
pIC50: −log10 of the molar value.
# Lookup of reported pIC50 keyed by entry

Need pIC50 of COC(=O)/C=C/c1ccc2c(c1)[C@]1(COC(N)=N1)c1cc(-c3cncnc3)ccc1O2 [compound 993] , thanks.
6.00 to 7.00

Need pIC50 of NC1=N[C@@]2(CO1)c1cc(-c3cccnc3)ccc1Oc1ccc(Cl)nc12 [compound 988] , thanks.
5.30 to 6.00

Need pIC50 of CC(C)(C)COc1ccc2c(c1)[C@@]1(COC(N)=N1)c1cc(-c3ccc(F)nc3)cnc1O2 [compound 951] , thanks.
> 7.00
